# EXPERIMENTAL_TARGET: UniProtKB Q72547
pIC50: −log10 of the molar value.
So basically: pIC50 at 5 or higher? That is satisfied. Lower than 5? That is not satisfied.

| COMPOUND | EXPERIMENTAL_TARGET | CLASS_NAME |
| --- | --- | --- |
| O=C1c2ccc3ccccc3c2C2(c3ccccc3)SCCN12 (stereo not given) | UniProtKB Q72547 | not satisfied |
| O=C1c2ccc(C(F)(F)F)cc2C2(c3ccccc3)SCCN12 (stereo not given) | UniProtKB Q72547 | not satisfied |
| O=C1c2ccccc2C2(c3c4ccccc4cc4ccccc34)SCCN12 (stereo not given) | UniProtKB Q72547 | satisfied |
| Cc1ccnc(C23SCCN2C(=O)c2ccccc23)c1 (stereo not given) | UniProtKB Q72547 | satisfied |
| O=C1c2ccccc2C2(c3ccccc3)NCCN12 (stereo not given) | UniProtKB Q72547 | not satisfied |
| NC(=O)[C@H]1CSC2(c3ccccc3)c3ccccc3C(=O)N12 (stereo not given in full) | UniProtKB Q72547 | not satisfied |
| O=C1c2cc(Cl)ccc2C2(c3ccccc3)SCCN12 (stereo not given) | UniProtKB Q72547 | not satisfied |
| O=C1c2ccccc2C2(c3ccc(Cl)c(Cl)c3)SCCN12 (stereo not given) | UniProtKB Q72547 | satisfied |
| Cc1cccc(C23SCCN2C(=O)c2ccccc23)c1C (stereo not given) | UniProtKB Q72547 | satisfied |
| O=C1c2ccccc2C2(c3ccccc3)N1CCS2(=O)=O (stereo not given) | UniProtKB Q72547 | not satisfied |
| O=C(O)[C@H]1CSC2(c3ccccc3)c3ccccc3C(=O)N12 (stereo not given in full) | UniProtKB Q72547 | not satisfied |
| O=C1c2cccnc2C2(c3ccccn3)SCCN12 (stereo not given) | UniProtKB Q72547 | not satisfied |
| COc1ccc2c(c1)C(=O)N1CCSC21c1ccccc1 (stereo not given) | UniProtKB Q72547 | satisfied |
| C[C@H]1COC2(c3ccccc3)c3ccccc3C(=O)N12 (stereo not given in full) | UniProtKB Q72547 | not satisfied |
| O=C1c2ccccc2C2(c3ccccc3)OCCN12 (stereo not given) | UniProtKB Q72547 | satisfied |
| Cc1ccccc1C12SCCN1C(=O)c1ccccc12 (stereo not given) | UniProtKB Q72547 | satisfied |
| COc1ccc(C23SCCN2C(=O)c2ccccc23)cc1 (stereo not given) | UniProtKB Q72547 | not satisfied |
| O=C1c2ccccc2C2(c3ccccc3)N1CC[S+]2[O-] (stereo not given) | UniProtKB Q72547 | satisfied |
| O=C1c2ccc(Cl)cc2C2(c3ccccc3)SCCN12 (stereo not given) | UniProtKB Q72547 | satisfied |
| O=C1c2cc(Cl)c(Cl)cc2C2(c3ccccc3)SCCN12 (stereo not given) | UniProtKB Q72547 | satisfied |
| CC(C)c1cccc(C23SCCN2C(=O)c2ccccc23)c1 (stereo not given) | UniProtKB Q72547 | satisfied |
| Cc1cc(C)cc([C@]23SCCN2C(=O)c2ccccc23)c1 | UniProtKB Q72547 | satisfied |
| O=C1c2ccccc2C2(c3ccccc3)CCCCN12 (stereo not given) | UniProtKB Q72547 | not satisfied |
| O=C1c2ccccc2C2(c3ccccc3)Sc3ccccc3CN12 (stereo not given) | UniProtKB Q72547 | not satisfied |
| O=C1c2ccccc2C2(c3cccc4ccccc34)SCCN12 (stereo not given) | UniProtKB Q72547 | satisfied |
| O=C1c2ccccc2C2(c3ccc[nH]3)SCCN12 (stereo not given) | UniProtKB Q72547 | not satisfied |
| O=C1c2ccccc2C2(c3cccc(Cl)c3)SCCN12 (stereo not given) | UniProtKB Q72547 | satisfied |
| Cc1cccc([C@]23SCCN2C(=O)c2ccccc23)c1 | UniProtKB Q72547 | satisfied |
